The origin of these recorded values is ChEMBL document CHEMBL2311469.

Target: Cathepsin B (Homo sapiens)
Experiment: Mixed inhibition of cathepsin B (unknown origin) endopeptidase activity assessed as inhibition constant for enzyme-inhibitor complex
QUANTITY MEASURED: Ki (µM)

| SMILES STR | ASSAY TARGET | UNIT TAG | RECORDED NUMBER |
| --- | --- | --- | --- |
| O=[N+]([O-])c1ccc(O)c2ncccc12 | Cathepsin B (Homo sapiens) | µM | 154 |

* * *

Biological target: Cathepsin B (Homo sapiens)
Test: Mixed inhibition of human recombinant cathepsin B exopeptidase activity using Abz-Gly-Ile-Val-Arg-Ala-Lys(Dnp)-OH substrate assessed as inhibition constant for enzyme-substrate-inhibitor complex
Measured Ki values are reported for all entries that follow.

| MOLECULE | UNIT TAG | Ki |
| --- | --- | --- |
| CCN(CC)C(=O)C1CCCN(c2ccc([N+](=O)[O-])c3cccnc23)C1 (racemic) | µM | 36 |
| N#CCN(Cc1ccccc1)Cc1cc([N+](=O)[O-])c2cccnc2c1O | µM | 8 |
